Exercise: for every item that follows, state its recorded GI50.
Target: Ba/F3 EGFR L858R/C797S mutants (Homo sapiens, UniProt P00533, C797S/L858R, cells depend on it)
Sequence (P00533 whole entry C797S/L858R): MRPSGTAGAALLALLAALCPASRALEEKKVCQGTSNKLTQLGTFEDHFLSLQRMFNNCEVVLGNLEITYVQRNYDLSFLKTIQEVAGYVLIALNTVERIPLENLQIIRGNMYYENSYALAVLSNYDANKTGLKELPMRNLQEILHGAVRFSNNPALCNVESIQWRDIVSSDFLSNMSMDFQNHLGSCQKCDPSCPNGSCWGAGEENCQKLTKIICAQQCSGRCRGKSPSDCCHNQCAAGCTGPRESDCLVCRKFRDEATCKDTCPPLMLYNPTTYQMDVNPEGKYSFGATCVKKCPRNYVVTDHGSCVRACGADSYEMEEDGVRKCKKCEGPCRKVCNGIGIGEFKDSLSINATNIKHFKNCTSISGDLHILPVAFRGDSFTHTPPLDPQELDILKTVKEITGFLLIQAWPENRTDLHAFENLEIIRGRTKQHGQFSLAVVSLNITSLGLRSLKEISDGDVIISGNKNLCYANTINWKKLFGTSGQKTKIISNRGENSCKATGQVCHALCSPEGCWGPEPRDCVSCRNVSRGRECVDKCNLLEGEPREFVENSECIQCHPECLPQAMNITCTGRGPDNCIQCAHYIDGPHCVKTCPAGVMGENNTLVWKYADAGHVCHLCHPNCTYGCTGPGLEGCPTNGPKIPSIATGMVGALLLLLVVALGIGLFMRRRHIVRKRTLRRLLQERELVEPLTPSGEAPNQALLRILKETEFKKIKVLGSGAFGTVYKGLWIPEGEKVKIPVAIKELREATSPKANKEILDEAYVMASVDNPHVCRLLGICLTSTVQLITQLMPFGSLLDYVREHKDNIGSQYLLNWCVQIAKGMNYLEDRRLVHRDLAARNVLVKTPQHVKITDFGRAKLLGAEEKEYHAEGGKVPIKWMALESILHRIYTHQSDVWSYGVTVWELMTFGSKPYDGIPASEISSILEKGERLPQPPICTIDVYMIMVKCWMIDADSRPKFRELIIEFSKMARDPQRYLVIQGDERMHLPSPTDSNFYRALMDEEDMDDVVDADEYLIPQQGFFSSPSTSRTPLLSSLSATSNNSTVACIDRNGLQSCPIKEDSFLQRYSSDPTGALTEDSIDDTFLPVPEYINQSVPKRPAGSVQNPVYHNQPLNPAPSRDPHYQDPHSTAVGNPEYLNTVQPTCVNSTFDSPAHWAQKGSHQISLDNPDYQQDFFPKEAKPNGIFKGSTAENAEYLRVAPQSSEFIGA
Assay: CellTiter-Glo cell viability, Ba/F3 EGFR L858R/C797S cells
Type: cell-based, murine
Settings: 72 hours, read-out: Ba/F3 EGFR mutant cell (IC50, nM) L/C
Number only, in nM; omit the unit.

# GI50 (compound: CCc1cc(Nc2ncc(Br)c(Nc3ccc4nccnc4c3N(C)S(C)(=O)=O)n2)c(OC)cc1N1CCC(N(C)C)CC1 [Example B14] ) is 41

# GI50 (compound: COc1cc(C2CCNCC2)ccc1Nc1ncc(Br)c(Nc2ccc3nccnc3c2NS(C)(=O)=O)n1 [Example B18] ) is 1020

# GI50 (compound: CCc1cc(Nc2ncc(Br)c(Nc3ccc4nccnc4c3N(C)S(C)(=O)=O)n2)c(OC)cc1N1CCC(N2CCN(C)CC2)CC1 [Example A10] ) is 37

# GI50 (compound: CCCc1cc(Nc2ncc(Cl)c(Nc3cccc(OC)c3N(C)S(C)(=O)=O)n2)c(OC)cc1N1CCC(N(C)C)CC1 [Example C31] ) is 89

# GI50 (compound: CCc1cc(Nc2ncc(Cl)c(Nc3cccc(OC)c3NS(C)(=O)=O)n2)c(OC)cc1N1CCC(N2CCOCC2)CC1 [Example C20] ) is 87

# GI50 (compound: COc1cc(C2CCN(C)CC2)ccc1Nc1ncc(Cl)c(Nc2ccc3nccnc3c2NS(C)(=O)=O)n1 [Example B23] ) is 302

# GI50 (compound: CCc1cc(Nc2ncc(Cl)c(Nc3ccc4nccnc4c3NS(C)(=O)=O)n2)c(OC)cc1N1CCC(N2CC3CCC2CN3C)CC1 (centres unmarked) [Example A45] ) is 103

# GI50 (compound: COc1cc(N2CCNCC2)ccc1Nc1ncc(Cl)c(Nc2cccc(OC)c2NS(C)(=O)=O)n1 [Example C6] ) is 305

# GI50 (compound: COc1cc(OC2CNC2)ccc1Nc1ncc(Cl)c(Nc2ccc3nccnc3c2NS(C)(=O)=O)n1 [Example D6] ) is 1130

# GI50 (compound: CCc1cc(Nc2ncc(Br)c(Nc3ccc4nccnc4c3N(C)S(C)(=O)=O)n2)c(OC)cc1N1CCN(C2CCN(C)CC2)CC1 [Example A49] ) is 15

# GI50 (compound: COc1cc(N2CCC(N(C)C)CC2)ccc1Nc1ncc(Br)c(Nc2ccc3nccnc3c2NS(C)(=O)=O)n1 [Example B3] ) is 325

# GI50 (compound: CCc1cc(Nc2ncc(Br)c(Nc3ccc4nccnc4c3NS(C)(=O)=O)n2)c(OC)cc1N1CCC(N2CCN(C)CC2)CC1 [Example A8] ) is 147

# GI50 (compound: COc1cc(C2CCNCC2)ccc1Nc1ncc(Cl)c(Nc2ccc3nccnc3c2NS(C)(=O)=O)n1 [Example B15] ) is 1540

# GI50 (compound: CCc1cc(Nc2ncc(Cl)c(Nc3ccc4c(c3NS(C)(=O)=O)OCCO4)n2)c(OC)cc1N1CCC(N2CCOCC2)CC1 [Example C15] ) is 44

###

Molecular target: Ba/F3 EGFR Del19/C797S mutants (Homo sapiens, UniProt P00533, C797S, cells depend on it, form not given)
Sequence (P00533 with tags, fused parts or gaps DEL746-750/C797S, form open): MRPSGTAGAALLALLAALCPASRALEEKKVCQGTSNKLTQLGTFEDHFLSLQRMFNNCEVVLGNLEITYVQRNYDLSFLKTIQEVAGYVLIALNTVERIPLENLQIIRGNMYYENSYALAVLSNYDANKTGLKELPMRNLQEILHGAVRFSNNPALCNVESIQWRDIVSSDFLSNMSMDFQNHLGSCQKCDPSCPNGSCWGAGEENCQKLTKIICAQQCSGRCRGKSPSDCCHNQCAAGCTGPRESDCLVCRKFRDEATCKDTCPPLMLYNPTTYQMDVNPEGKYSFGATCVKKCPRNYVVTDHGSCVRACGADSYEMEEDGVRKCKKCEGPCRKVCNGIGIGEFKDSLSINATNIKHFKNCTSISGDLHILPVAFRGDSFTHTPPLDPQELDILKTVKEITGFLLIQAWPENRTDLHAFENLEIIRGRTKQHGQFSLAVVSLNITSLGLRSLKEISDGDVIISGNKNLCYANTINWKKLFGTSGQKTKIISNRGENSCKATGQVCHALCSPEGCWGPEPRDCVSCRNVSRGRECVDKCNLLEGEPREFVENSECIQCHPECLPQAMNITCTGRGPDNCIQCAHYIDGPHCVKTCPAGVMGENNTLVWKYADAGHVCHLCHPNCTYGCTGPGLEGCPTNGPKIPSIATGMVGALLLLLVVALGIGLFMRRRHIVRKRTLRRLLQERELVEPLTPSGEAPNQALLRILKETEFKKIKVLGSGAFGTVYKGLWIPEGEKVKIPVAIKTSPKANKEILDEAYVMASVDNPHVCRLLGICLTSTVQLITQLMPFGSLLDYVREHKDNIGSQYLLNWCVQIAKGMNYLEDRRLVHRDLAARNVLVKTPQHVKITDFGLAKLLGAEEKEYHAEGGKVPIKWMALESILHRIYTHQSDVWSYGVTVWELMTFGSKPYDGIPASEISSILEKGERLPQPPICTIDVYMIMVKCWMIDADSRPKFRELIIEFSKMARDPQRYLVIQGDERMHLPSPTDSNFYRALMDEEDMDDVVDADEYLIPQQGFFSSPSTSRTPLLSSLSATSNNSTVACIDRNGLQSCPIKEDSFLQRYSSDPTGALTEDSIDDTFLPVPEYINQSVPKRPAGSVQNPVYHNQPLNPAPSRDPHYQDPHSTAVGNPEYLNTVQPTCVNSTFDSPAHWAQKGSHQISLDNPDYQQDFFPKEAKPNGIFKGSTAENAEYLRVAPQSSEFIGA
Test: CellTiter-Glo cell viability, Ba/F3 EGFR Del19/C797S cells
Format: cell-based, murine
Conditions: 72 hours, read-out: Ba/F3 EGFR mutant cell (IC50, nM) D/C
Description: In order to evaluate an inhibitory ability on wild-type Ba/F3 EGFR and Ba/F3 EGFR mutations in Ba/F3 cell lines by the compounds of Formula 1, the experiment was carried out as described below. The measurement of activities on Ba/F3 cells harboring wild-type EGFR and EGFR mutants by the compounds of the present invention were determined utilizing the CELLTITER-GLO™ system from Promega, as follows. […]
measured quantity: GI50 (nM)
Number only, in nM; omit the unit.

# GI50 (compound: COc1cc(N2CCC(N3CCN(C)CC3)CC2)c(C)cc1Nc1ncc(Br)c(Nc2cccc(OC)c2N(C)S(C)(=O)=O)n1 [Example C21] ) is 10

# GI50 (compound: CN[C@@H]1CN(c2ccc(Nc3ncc(Cl)c(Nc4ccc5nccnc5c4NS(C)(=O)=O)n3)c(OC)c2)C[C@H]1F [Example D5] ) is 595

# GI50 (compound: CCc1cc(Nc2ncc(Br)c(Nc3ccc4nccnc4c3NS(C)(=O)=O)n2)c(OC)cc1N1CCC(N2CCCC2)CC1 [Example A33] ) is 4

# GI50 (compound: CCc1cc(Nc2ncc(Cl)c(Nc3ccc(OC)cc3NS(C)(=O)=O)n2)c(OC)cc1N1CCC(N2CCOCC2)CC1 [Example C14] ) is 4

# GI50 (compound: CCc1cc(Nc2ncc(Cl)c(Nc3ccc4nccnc4c3NS(C)(=O)=O)n2)c(OC)cc1N1CCC(N(C)C)CC1 [Example B5] ) is 30

# GI50 (compound: CCc1cc(Nc2ncc(Br)c(Nc3ccc4nccnc4c3NS(C)(=O)=O)n2)c(OC)cc1N1CCC(N2CCN(C)CC2)CC1 [Example A8] ) is 38

# GI50 (compound: COc1ccc(Nc2nc(Nc3cc(C)c(N4CCC(N5CCN(C)CC5)CC4)cc3OC)ncc2Br)c(NS(C)(=O)=O)c1 [Example C2] ) is 13

# GI50 (compound: CCc1cc(Nc2ncc(Cl)c(Nc3ccc4nccnc4c3NS(C)(=O)=O)n2)c(OC)cc1N1CCC(N2CCN(C)CC2)CC1 [Example A2] ) is 12

# GI50 (compound: CCCc1cc(Nc2ncc(Cl)c(Nc3cccc(OC)c3N(C)S(C)(=O)=O)n2)c(OC)cc1N1CCC(N(C)C)CC1 [Example C31] ) is 10

# GI50 (compound: CCc1cc(Nc2ncc(Br)c(Nc3ccc4nccnc4c3NS(C)(=O)=O)n2)c(OC)cc1N1CCC(N2CCOCC2)CC1 [Example A28] ) is 36

# GI50 (compound: CCc1cc(Nc2ncc(Br)c(Nc3ccc4nccnc4c3N(C)S(C)(=O)=O)n2)c(OC)cc1N1CC2(CCN2C(C)C)C1 [Example B31] ) is 15

# GI50 (compound: COc1cc(N2CCC(N3CCN(C)CC3)CC2)c(C)cc1Nc1ncc(Cl)c(Nc2ccc3nccnc3c2NS(=O)(=O)C2CC2)n1 [Example A26] ) is 72

# GI50 (compound: COc1cc(N2CC[C@H](N3CCN(C)CC3)[C@H](F)C2)ccc1Nc1ncc(Cl)c(Nc2ccc3nccnc3c2NS(C)(=O)=O)n1 [Example A35] ) is 145

# GI50 (compound: CCCc1cc(Nc2ncc(Cl)c(Nc3cccc(OC)c3NS(C)(=O)=O)n2)c(OC)cc1N1CCC(N(C)C)CC1 [Example C19] ) is 12
